This collection of values is drawn from patent US20260167619A2.

Molecular target: EGFR(L858R_T790M_C797S) (aa695-end, Invitrogen) (Homo sapiens, UniProt P00533, C797S/L858R/T790M)
Sequence (P00533 695-1210 T790M/C797S/L858R): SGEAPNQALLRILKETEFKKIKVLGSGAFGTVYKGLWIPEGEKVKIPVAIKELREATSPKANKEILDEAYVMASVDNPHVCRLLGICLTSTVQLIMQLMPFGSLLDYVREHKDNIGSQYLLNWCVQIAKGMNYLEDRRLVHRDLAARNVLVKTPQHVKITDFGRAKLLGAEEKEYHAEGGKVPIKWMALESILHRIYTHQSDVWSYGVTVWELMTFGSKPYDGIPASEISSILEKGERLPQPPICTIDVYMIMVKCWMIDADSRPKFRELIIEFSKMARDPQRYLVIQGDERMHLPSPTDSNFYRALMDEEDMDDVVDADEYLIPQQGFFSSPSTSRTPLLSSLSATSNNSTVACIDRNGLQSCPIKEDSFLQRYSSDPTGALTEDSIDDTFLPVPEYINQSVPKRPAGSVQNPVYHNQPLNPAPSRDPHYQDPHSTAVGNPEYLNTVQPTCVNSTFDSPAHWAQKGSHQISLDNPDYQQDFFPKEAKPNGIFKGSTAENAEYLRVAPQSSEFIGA
Experiment: Biochemical EGFR inhibition assay (TR-FRET), L858R/T790M/C797S mutant
Details: ATP at Km, 15 min pre-incubation, 60 min reaction; read-out: LR_TM_CS (Km ATP) IC50
Description: Compounds were tested for inhibition of kinase activity against EGFR (aa668-1210, Invitrogen), EGFR(L858R_T790M_C797S) (aa695-end, Invitrogen) and EGFR(Dell9_T790M_C797S) (aa 669-1210, in house) in assays based on time-resolved fluorescence-resonance energy transfer (TR-FRET) methodology. […] The residual enzyme activity in presence of increasing concentrations of compounds was calculated based on the ratio of fluorescence at 665 nm to that at 620 nm. […]
recorded metric: pIC50
Notebook: values listed as pIC50 are -log10 of the concentration (mol/L).

// pIC50 lookup, molecule = CN1CCN(c2ccc(Nc3ncc(Br)c(Nc4cccc5c4N(S(C)(=O)=O)CC5)n3)c3c2CC(C)(C)O3)CC1 , result: 7.63

// pIC50 lookup, molecule = COc1cc(N2CCC(N3CCN(C)CC3)CC2)ccc1Nc1ncc(Br)c(Nc2cccc3c2N(S(C)(=O)=O)CC32CC2)n1 , result: 9.36

// pIC50 lookup, molecule = COc1cc(N2CCC(N3CCN(C)CC3)CC2)ccc1Nc1ncc(Br)c(Nc2cccc3c2N(S(C)(=O)=O)C(C)(C)C3)n1 , result: 9.52

// pIC50 lookup, molecule = COc1cc(N2CCC(N3CCN(C)CC3)CC2)ccc1Nc1nc(Nc2cccc3c2N(S(C)(=O)=O)CC3)c2sccc2n1 , result: 8.07
